// cross-source set; read-out = pIC50; system = Galectin-3 (Homo sapiens)
Expect pIC50 as a plain number equal to -log10 of the molar concentration.

Given the molecule O=C([C@@H]1O[C@H](CO)[C@H](O)[C@H](n2cc(-c3cc(F)c(F)c(F)c3)nn2)[C@H]1O)N(Cc1ncc(Cl)s1)[C@H]1CCCC[C@@H]1O , what is its reported pIC50?
6.39

Which pIC50 value is on record for CO[C@@H]1[C@@H](n2cc(-c3cc(F)cc(Br)c3)nn2)[C@@H](O)[C@@H](CO)O[C@H]1C(=O)N(c1cc(C)cc(C#N)c1)[C@@H]1CCC[C@H]1O ?
5.95

Query (molecule): CO[C@@H]1[C@@H](n2cc(-c3cc(F)c(C)c(F)c3)nn2)[C@@H](O)[C@@H](CO)O[C@@H]1CC1=NOC2(CCCCC2)C1 ; field requested: pIC50
6.96

Quick one: pIC50 of CO[C@@H]1[C@@H](n2cc(-c3cc(F)c(F)c(F)c3)nn2)[C@@H](O)[C@@H](CO)O[C@H]1C(=O)N(c1cccc(I)c1)[C@@H]1CC[C@H]1O ?
6.63

// pIC50 lookup, key: CN1CCC(c2cc(C[C@H]3O[C@H](CO)[C@H](O)[C@H](n4cc(-c5cc(F)c(F)c(F)c5)nn4)[C@H]3O)no2)CC1
6.57

Which measured pIC50 value corresponds to CO[C@@H]1[C@@H](n2cc(-c3cc(F)c(F)c(F)c3)nn2)[C@@H](O)[C@@H](CO)O[C@@H]1CC1CN(c2ccc(OC(F)F)cc2)C(=O)O1 (mixture of isomers) ?
5.81
